Origin of the recorded values: patent US20210145976A1

A collection of binders and their measured HSA
target: human serum albumin (human) (UniProt P02768); assay: screening ELISA
Sequence (P02768 25-609 limits assumed): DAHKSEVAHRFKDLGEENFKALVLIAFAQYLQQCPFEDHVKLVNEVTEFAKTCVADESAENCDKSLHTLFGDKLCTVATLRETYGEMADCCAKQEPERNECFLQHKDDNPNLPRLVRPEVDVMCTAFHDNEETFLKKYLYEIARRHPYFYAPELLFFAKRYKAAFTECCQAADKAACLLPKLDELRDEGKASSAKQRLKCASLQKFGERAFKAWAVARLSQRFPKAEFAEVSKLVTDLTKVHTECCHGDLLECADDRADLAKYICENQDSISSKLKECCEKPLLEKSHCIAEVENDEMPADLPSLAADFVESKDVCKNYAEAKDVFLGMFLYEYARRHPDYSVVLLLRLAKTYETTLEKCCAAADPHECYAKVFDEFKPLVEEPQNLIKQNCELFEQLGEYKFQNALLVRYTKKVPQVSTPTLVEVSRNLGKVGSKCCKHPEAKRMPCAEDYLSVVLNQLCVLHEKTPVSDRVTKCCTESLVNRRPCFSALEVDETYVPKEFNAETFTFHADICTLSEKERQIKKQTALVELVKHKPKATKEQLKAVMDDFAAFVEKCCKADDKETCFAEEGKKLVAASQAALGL
A bare number is all that is needed in reply.

Record excerpt, results attached:
SEQ ID NO 158 (designed binder) MLPAPKNLVVSRVTEDSARLSWTAPDAAFDSFIIDYLELDDYGEAIVLTVPGSERSYDLTGLKPGTEYPVYIYGVKGGLPSTPLSAIFTT : 1350
SEQ ID NO 162 (designed binder) MLPAPKNLVVSRVTEDSARLSWTAPDAAFDSFHIAYEEATTYGEAIFLRVPGSERSYDLTGLKPGTEYDVWIEGVKGGTISGPLSAIFTT : 1850
SEQ ID NO 202 (designed binder) MLPAPKNLVVSRVTEDSARLSWTAPDAAFDSFYIDYLELTYSGEAIVLTVPGSERSYDLTGLKPGTEYYVYIYGVKGGYPSSPLSAIFTT : 2800
SEQ ID NO 173 (designed binder) MLPAPKNLVVSRVTEDSARLSWTAPDAAFDSFTIHYRELYVQAIVLTVPGSERSYDLTGLKPGTEYLVMIPGVKGGPTSVPLSAIFTT : 20800

I would be grateful if you could share the reported HSA for SEQ ID NO 44 (designed binder) MLPAPKNLVVSRVTEDSARLSWTAPDAAFDSFYIEYYESLPDGEAIVLTVPGSERSYDLTGLKPGTEYAVYIYGVKGGYYSRPLSAIFTT .
3920
